tested_target: Voltage-gated potassium channel subunit beta-2 (Rattus norvegicus) (UniProt P62483)
Sequence (P62483 whole entry, looked up): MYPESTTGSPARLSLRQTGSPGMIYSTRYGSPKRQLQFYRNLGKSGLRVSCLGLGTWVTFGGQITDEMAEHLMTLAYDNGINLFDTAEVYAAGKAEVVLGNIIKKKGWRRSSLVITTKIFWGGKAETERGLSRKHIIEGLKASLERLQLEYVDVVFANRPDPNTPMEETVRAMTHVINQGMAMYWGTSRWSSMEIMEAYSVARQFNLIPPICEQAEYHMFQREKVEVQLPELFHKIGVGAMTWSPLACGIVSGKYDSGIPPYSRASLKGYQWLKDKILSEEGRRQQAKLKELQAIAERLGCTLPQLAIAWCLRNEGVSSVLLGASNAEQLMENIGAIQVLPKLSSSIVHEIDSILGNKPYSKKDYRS
assay_overview: KvBeta positive modulators, primary screen, biochemical, NADPH fluorescence (AID 623);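 also: fluorescence intensity change per second fitted from 20 to 320 s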
applied_conditions: Recombinant KvBeta, NADPH fluorescence decrease slope, 10 min; at 10 µM; stronger effect = lower value
quantity_measured: NADPH fluorescence slope
Please respond with just the number, no unit label.

# annotated cases, reported NADPH fluorescence slope shown
molecule | test_result
CC(C)Oc1ccc(Cc2c(O)nc(NCCCN(C)C)[nH]c2=O)cc1 | -1e-05
COC(=O)c1cc(Br)c(=O)n(CCc2ccc(F)cc2)c1 | -5.7e-05
Cc1ccc(Cl)c(Nc2ccccc2C(=O)O)c1Cl | -4.2e-05

Entry O=C(O)CCCCCCC1C(=O)NC(=O)N1CCC(O)C1CCCCC1 (stereo unspecified) needs its NADPH fluorescence slope filled in; supply it. -5.2e-05

// Input: "N#Cc1ccc(-c2cccnc2)nc1SCC(=O)Nc1sc2c(c1C#N)CCC2" . Output its NADPH fluorescence slope only. -5.3e-05

Given the molecule "O=C(Nc1ccc2c(c1)OCCO2)c1ccc(Br)o1" , write its reported NADPH fluorescence slope. -8.8e-06

Entry "Cc1cc(C(F)(F)F)c(C#N)c(SCC(=O)NC2CC2)n1" needs its NADPH fluorescence slope filled in; supply it. -3.6e-05

// Input: "Cc1c(OCc2ccccc2)c(=O)ccn1Cc1ccccc1" . Output its NADPH fluorescence slope only. -2.4e-05

Return NADPH fluorescence slope (reported value) for this molecule: "Cc1ccc(-c2nnc(OCCN3CCOCC3)c3ccccc23)cc1" -2.6e-05

Report NADPH fluorescence slope, nothing else, for this molecule: "Cc1cc(=O)oc2c(CN3CCN(C)CC3)c(O)c(Cl)cc12" 2e-05

# return recorded NADPH fluorescence slope for input "COc1cc(-c2nn3c(C4CCCCC4)nnc3s2)cc(OC)c1OC" -0.000183

###

assay_overview: DUSP6 inhibitors restoring Erk phosphorylation by chemical complementation, primary imaging in DUSP6-transfected HeLa (AID 609)
applied_conditions: HeLa MKP-3 transfected, phospho-Erk imaging KS statistic; measured here: cell density z-score; at 10 µM; cells stimulated with TPA for 15 min
The threshold is inclusive: z-score of exactly -0.2 counts as 1.0; values below receive 0.0.

compound | assigned_label
CCc1ccc(NC(=O)CSC2=C(C#N)C(c3ccco3)C3=C(CCCC3=O)N2)cc1 (stereo unspecified) | 0.0

Has "CN1[C@@H](CC(=O)c2ccccc2)CCC[C@H]1C[C@H](O)c1ccccc1" a recorded z-score greater than or equal to -0.2? 0.0

###

z-score listing for selected compounds.
assay_overview: DUSP6 inhibitors restoring Erk phosphorylation by chemical complementation, primary imaging in DUSP6-transfected HeLa (AID 609)
applied_conditions: HeLa MKP-3 transfected, phospho-Erk imaging KS statistic; measured here: cell density z-score; at 10 µM; cells stimulated with TPA for 15 min

Answer with the recorded z-score for the compound listed here: "Cc1cc(C)nc(NC2=NCC(=O)N2c2ccccc2)n1" 1.19

Return value of z-score for input Cc1c(NC(=O)C(CC(=O)O)NCc2ccco2)c(=O)n(-c2ccccc2)n1C (stereo not drawn) , no commentary. -0.725

Report z-score, nothing else, for this compound: "Brc1ccc(-c2cnc3n2CCCC3)cc1" 0.187

Using the record for "CN1CCN(c2nc3c(c(=O)n(C)c(=O)n3C)n2Cc2cccc3ccccc23)CC1" , state its measured z-score. -0.546

Look up and report measured z-score for this entry: "Cc1sccc1C1C(C#N)=C(N)SC(N)=C1C#N" 0.12

Please give measured z-score of the following entry: "CNc1ccccc1-c1nc2ccccc2n(C)c1=O" 0.495

Give the reported value of z-score for this record: "CC1(C)Cc2c(c(N3CCOCC3)nc3sc(C#N)c(N)c23)CS1" -0.238

Retrieve z-score measured for "Cc1nc(NCCN)c(C#N)c2c1COC(C)(C)C2" and print it. -0.432

Tell us which z-score value is on record for Cc1nc2c(o1)CCc1ccccc1C2O (stereo not drawn) 3.05

Identify z-score associated with the compound "CCOc1ccc(Cc2nc(N)nc(N)n2)cc1" -1.09

Quote z-score reported for CC1(c2ccco2)NC(=O)NC1=O (stereo not drawn) please. -0.981

Retrieve z-score measured for "COc1ccc2c(c1)nc(N)n2Cc1ccccc1" and print it. 2.35

Look up z-score of "CN(C)CCCN1c2ccccc2CCc2ccc(Cl)cc21" and report it. -0.576

###

assay_overview: DUSP6 inhibitors restoring Erk phosphorylation by chemical complementation, primary imaging in DUSP6-transfected HeLa (AID 609)
applied_conditions: HeLa MKP-3 transfected, phospho-Erk imaging KS statistic; measured here: nuclear c-Myc green intensity z-score; at 10 µM; cells stimulated with TPA for 15 min
Quick reference for z-score among some compounds
Reply: number alone, nothing else.

compound | test_result
CN(C)CC(O)COc1cccc(OCC(O)CN(C)C)c1 (centres undefined) | -0.215
Cc1ccc2nc(C(F)(F)F)c(C#N)c(N)c2c1 | -0.479
O=C(C1CC1(c1ccccc1)c1ccccc1)N1CCOCC1 (centres undefined) | -1.65
OC[C@H]1O[C@@H](n2cnc3c(Nc4ccccc4)ncnc32)[C@H](O)[C@@H]1O | -1.93
NC(=O)CSc1c[nH]c2ccccc12 | 0.978
O=C1c2ccccc2S(=O)(=O)N1CC(O)COc1ccc(Cl)cc1 (centres undefined) | 0.437
O=C(OCCN1CCOCC1)c1ccc(OCCN2CCOCC2)cc1 | 0.853
CCCCC[C@H](O)/C=C/[C@H]1C=CC(=O)[C@@H]1C/C=C\CCCC(=O)O | -0.725

Return value of z-score for input "CC(=O)OCC(=O)[C@H]1CC[C@H]2[C@@H]3CCC4=CC(=O)CC[C@]4(C)[C@H]3CC[C@]12C" , no commentary. 0.0337

// Input: "CCN(CC)CCNC(=O)c1c(C)oc2cc(Br)c(OC)cc12" . Output its z-score only. 0.845

For the compound "c1ccc2c(c1)[nH]c1c(N3CCC4(CC3)OCCO4)ncnc12" , give its measured z-score value. 0.207

Fill in reported z-score for this entry: "CC1(C)Cc2c(sc3c4nnnn4c4nnnn4c23)CO1" 0.0526

Using known records, supply z-score for "CCc1ccc2c(c1)C(C)=CC(C)(C)N2" -0.276

Answer with the recorded z-score for the compound listed here: COc1cccc(OC)c1OCC(C)CNCC1CCCO1 (centres undefined) 1.14

# return recorded z-score for input Cc1cccc(C)c1NC(=O)C1CCCCN1C (centres undefined) -0.238

###

Recorded z-score values for a group of compounds are listed next.
assay_overview: DUSP6 inhibitors restoring Erk phosphorylation by chemical complementation, primary imaging in DUSP6-transfected HeLa (AID 609)
applied_conditions: HeLa MKP-3 transfected, phospho-Erk imaging KS statistic; measured here: nuclear pErk red intensity z-score; at 10 µM; stronger effect = higher value; cells stimulated with TPA for 15 min

Indicate the recorded z-score value for this compound: "COC(=O)CCc1c(C)[nH]c(C(=O)OCc2ccccc2)c1C" 0.772

For the compound O=C1C(=O)N(CCN2CCOCC2)C(c2ccccn2)/C1=C(/O)c1ccccc1 (stereo not given) , give its measured z-score value. -1.2

Provide measured z-score value, entry: COc1ccc(/C(O)=C2/C(=O)C(=O)N(c3ncccn3)C2c2ccc(OC)c(OC)c2)cc1 (stereo not given) 2.34

// fetch z-score given entry "Cc1ccc(-c2nnc(OCCN3CCOCC3)c3ccccc23)cc1" -0.0262

Retrieve z-score measured for Cc1ccc(SCc2[nH]nc3c2C(c2ccc(C)o2)C(C#N)=C(N)O3)cc1 (stereo not given) and print it. 1.99

###

assay_overview: native HEK Tl+ uptake effects, second counter-screen – HEK cells, counterscreen 2, counter-screen for KCC2 modulator project, confirmation (AID 1718);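 also: run without ouabain in cells lacking the KCC2 cotransporter; slope of fluorescence scaled to its starting value between 10 and 20 s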
applied_conditions: HEK293 parental, thallium flux FluoZin-2 fluorescence slope; at 10 µM
This is one part of the list. Records with an inconclusive call do not appear.
quantity_measured: thallium flux slope
Please state the value as a number alone, without comment.

These solved cases illustrate the format of a correct answer.
compound | thallium flux slope
COc1ccc(Oc2c(Cl)cnn(-c3ccccc3)c2=O)cc1 | 0.00996
Cc1cccc(NC(=S)NC(=O)c2ccc(Br)o2)c1 | 0.0866
O=[N+]([O-])c1ccccc1/C=N/n1c(COc2ccccc2)n[nH]c1=S | 0.0116
Cc1sc2ncnc(Sc3nc4ccccc4s3)c2c1C | 0.0107

Give the reported thallium flux slope for this compound. "CCOC(=O)c1c(NC(=S)NC)sc2c1CCCC2" 0.101

Give thallium flux slope for "O=C(CCC(=O)OCc1cccc(C(=O)Oc2ccccc2)c1)Nc1cccc2ccccc12" 0.00997

For the compound "COc1cccc(CNC(=O)Cc2csc(Nc3nc(=S)[nH]c4ccccc34)n2)c1" , give its measured thallium flux slope value. 0.0141

Quickly give me recorded thallium flux slope for "CCOC(=O)c1c(C)[nH]c(C)c1C(=O)CSc1nc(N)cc(N)n1" 0.0105
